Reference for the values: patent US9546152B2

Exercise: for every item that follows, state its recorded log10 of IC50.
biological target: human orexin-2 receptor (Homo sapiens (Human), UniProt O43614); assay: FLIPR Ca2+ Flux Assay, orexin-2 receptor; format: cell-based; settings: CHO cells expressing the human orexin-2 receptor; agonist 70 pM Ala-6,12 human orexin-A; read-out: hOX2R FLIPR IC50
Sequence (O43614 whole entry): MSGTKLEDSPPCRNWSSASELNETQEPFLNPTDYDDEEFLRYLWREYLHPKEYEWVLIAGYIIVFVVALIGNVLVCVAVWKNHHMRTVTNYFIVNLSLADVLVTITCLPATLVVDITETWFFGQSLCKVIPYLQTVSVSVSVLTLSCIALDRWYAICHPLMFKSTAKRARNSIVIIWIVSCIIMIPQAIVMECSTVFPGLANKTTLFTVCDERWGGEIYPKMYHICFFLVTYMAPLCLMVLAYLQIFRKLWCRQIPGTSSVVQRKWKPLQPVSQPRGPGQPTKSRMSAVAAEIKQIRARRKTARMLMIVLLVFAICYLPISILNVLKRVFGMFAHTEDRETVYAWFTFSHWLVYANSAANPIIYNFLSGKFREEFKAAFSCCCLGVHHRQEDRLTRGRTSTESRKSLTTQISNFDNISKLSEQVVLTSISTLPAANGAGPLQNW
Give log10 of IC50, with IC50 taken in nM.

Give human orexin-2 receptor (Homo sapiens (Human), UniProt O43614) log10 of IC50 for Cc1c(C#N)ccnc1O[C@@H]1CC[C@@H](C)N(C(=O)c2ncccc2-c2cscn2)C1 [Example 24]
1.38

Under human orexin-2 receptor (Homo sapiens (Human), UniProt O43614): log10 of IC50 value of Cc1c(C#N)ccnc1O[C@@H]1CC[C@@H](C)N(C(=O)c2ccccc2-n2ncnn2)C1 [Example 70] ?
0.89

For the record COc1ccc(C(=O)N2C[C@H](Oc3nccc(C#N)c3OC)CC[C@H]2C)c(-n2nccn2)n1 [Example 104] , what value of log10 of IC50 is listed for human orexin-2 receptor (Homo sapiens (Human), UniProt O43614)?
1.46

Provide value of log10 of IC50 for this record tested with human orexin-2 receptor (Homo sapiens (Human), UniProt O43614): COc1c(C#N)ccnc1O[C@@H]1CC[C@@H](C)N(C(=O)c2ccccc2-n2nccn2)C1 [Example 96]
0.95

For the record COc1c(C#N)ccnc1O[C@@H]1CC[C@@H](C)N(C(=O)c2ccccc2-n2ncnn2)C1 [Example 115] , what value of log10 of IC50 is listed for human orexin-2 receptor (Homo sapiens (Human), UniProt O43614)?
0.78

Under human orexin-2 receptor (Homo sapiens (Human), UniProt O43614): log10 of IC50 value of Cc1c(C#N)ccnc1O[C@@H]1CC[C@@H](C)N(C(=O)c2cnccc2-n2nccn2)C1 [Example 10] ?
1.74

Give log10 of IC50 (human orexin-2 receptor (Homo sapiens (Human), UniProt O43614)) of the following molecule: Cc1c(C#N)ccnc1O[C@@H]1CC[C@@H](C)N(C(=O)c2ccc(F)cc2-c2nccs2)C1 [Example 34]
0.95

What value of log10 of IC50 on human orexin-2 receptor (Homo sapiens (Human), UniProt O43614) does COc1ccc(C(=O)N2C[C@H](Oc3nccc(C#N)c3C)CC[C@H]2C)c(-n2nccn2)n1 [Example 2] have?
1.32

Form entry - test system: human orexin-2 receptor (Homo sapiens (Human), UniProt O43614); read-out: log10 of IC50; molecule: Cc1c(C#N)ccnc1O[C@@H]1CC[C@@H](C)N(C(=O)c2cc(F)cnc2-c2nccs2)C1 [Example 35]
1.11

# returns recorded log10 of IC50 (system: human orexin-2 receptor (Homo sapiens (Human), UniProt O43614)) for COc1ccc(C(=O)N2C[C@H](Oc3nccc(C#N)c3C)CC[C@H]2C)c(N(C)C)n1 [Example 87]
1.84

# get_value(readout= log10 of IC50, system= human orexin-2 receptor (Homo sapiens (Human), UniProt O43614)) for COc1ccc(C(=O)N2C[C@H](Oc3nccc(C#N)c3C)CC[C@H]2C)c(C2CC2)c1 [Example 52]
1.75

Recall the recorded log10 of IC50 for CSc1ccc(C(=O)N2C[C@H](Oc3nccc(C#N)c3C)CC[C@H]2C)c(-n2nccn2)n1 [Example 86] with human orexin-2 receptor (Homo sapiens (Human), UniProt O43614) and state it.
2.10

// fetch human orexin-2 receptor (Homo sapiens (Human), UniProt O43614) log10 of IC50 for Cc1c(C#N)ccnc1O[C@@H]1CC[C@@H](C)N(C(=O)c2c(F)cccc2-c2cscn2)C1 [Example 22]
1.30

What reported log10 of IC50 corresponds to COc1c(C#N)ccnc1O[C@@H]1CC[C@@H](C)N(C(=O)c2ccccc2C2CCC2)C1 [Example 105] on human orexin-2 receptor (Homo sapiens (Human), UniProt O43614)?
1.56

Look up log10 of IC50 with human orexin-2 receptor (Homo sapiens (Human), UniProt O43614) for this molecule: COc1c(C#N)ccnc1O[C@@H]1CC[C@@H](C)N(C(=O)c2cc(C)ccc2-n2nccn2)C1 [Example 103]
1.38

What is its log10 of IC50 for human orexin-2 receptor (Homo sapiens (Human), UniProt O43614)? Entry: COc1c(C#N)ccnc1O[C@@H]1CC[C@@H](C)N(C(=O)c2ccccc2-c2ncccn2)C1 [Example 107]
1.52
